Let's look at some compounds and their measured residual activity.
- Assayed system: HIPK1 (human)
- Assay summary: radiometric filter-binding kinase assay, Kinase HotSpot
- Applied conditions: compound 0.5 µM; ATP 10 µM
Please give a number only; it is taken to be in %.

Field: example entries. Status: answers known.
Would you mind telling me what residual activity value was observed for COc1cc2c(cc1OC)-c1[nH]nc(Nc3cccc(F)c3)c1C2 ?
96.4

Would you mind telling me what residual activity value was observed for Cn1cc(/C=C2\C(=O)Nc3ccc(S(N)(=O)=O)cc32)c2ccccc21 ?
97.2

Would you mind telling me what residual activity value was observed for c1ccc(-c2cnc(Nc3ccc(OCCN4CCCC4)cc3)s2)cc1 ?
91.3

Continuing:
Would you mind telling me what residual activity value was observed for O=C1NC(=O)c2c1c1c3ccccc3[nH]c1c1[nH]c3cc(Br)ccc3c21 ?
98.2

Would you mind telling me what residual activity value was observed for N/C(=N\N=C/c1ccc(-c2cccc([N+](=O)[O-])c2)o1)N[N+](=O)[O-] ?
81.1

Would you mind telling me what residual activity value was observed for N#CCCc1ccc2c(c1)-c1[nH]c3ccc([N+](=O)[O-])cc3c1CC(=O)N2 ?
97.9

Would you mind telling me what residual activity value was observed for O=c1c2ccccc2[nH]c(=S)n1CCN1CCC(=C(c2ccc(F)cc2)c2ccc(F)cc2)CC1 ?
107

Would you mind telling me what residual activity value was observed for CCOc1cc2ncnc(Nc3cccc(Br)c3)c2cc1OCC ?
104

Would you mind telling me what residual activity value was observed for O=S(=O)(NCCNC/C=C/c1ccc(Br)cc1)c1cccc2cnccc12 ?
91.4

Would you mind telling me what residual activity value was observed for FC(F)(F)c1ccc(/C=C/c2nc(COc3ccc(CCCCn4ccnn4)cc3)co2)cc1 ?
101

Would you mind telling me what residual activity value was observed for O=C1NC(=O)c2cc(Nc3ccc(F)cc3)c(Nc3ccc(F)cc3)cc21 ?
102
